The reported measurements were obtained from PubChem BioAssay AID330.

- Tested on: P388 leukemia ip, CD2F1 mice, survival T/C
- measurementDescription: NCI In Vivo Anticancer Drug Screen. Data for tumor model P388 Leukemia (intraperitoneal) in CD2F1 (CDF1) mice
- conditionNotes: endpoint: median survival time; dose: 60.0 mg/kg/injection; schedule: Q01DX005 (ip); vehicle: saline with Tween-80; higher = longer survival
- Procedure: The antitumor activity of compounds was measured in mice bearing transplantable tumors. Survival or tumor size were measured and the results are expressed as the measurement made in the treated group (T) divided by the measurement made in the vehicle treated control group (C). The tumor model used in this assay is P388 Leukemia (intraperitoneal) in CD2F1 (CDF1) mice
Toxic doses and inconclusive results are not listed.
Listed next: entries and their corresponding T/C.

{"columns": ["molecule", "T/C"],
 "data": [
  ["CCOC(=O)Cc1ccc(N(CCO)CCO)cc1", "100 % of control"],
  ["O=C(Nc1ccc(Nc2ccccc2)cc1)Nc1cc([N+](=O)[O-])ccc1Cl", "90 % of control"]
]}

Moving on to the next molecule.
Reported T/C for CC1(C)c2ccccc2N2C(c3ccccc3)=NN(c3ccccc3)C21C (stereo not drawn) was 100 % of control
